tested on: human salivary ductal (HSG) cells; test: 3H-thymidine uptake mitogenesis assay; type: cell-based; conditions: 10 nM; compared to intact lacritin
value-type: mitogenic activity of deletion constructs

>>> result("N-24: deletion mutant comprising a deletion of the 24 amino terminal amino acids of lacritin (protein, homo sapiens, deletion mutant comprising a deletion of the 24 amino terminal amino acids of lacritin) DSTGADPAQEAGTSKPNEEISGPAEPASPPETTTTAQETSAAAVQGTAKVTSSRQELNPLKSIVEKSILLTEQALAKAGKGMHGGVPGGKQFIENGSEFAQKLLKKFSLLKPWA")
"active"
>>> result("C-5: deletion of the 5 carboxy terminal amino acids of mature lacritin (SEQ ID NO:10) (protein, listed as Homo sapiens) EDASSDSTGADPAQEAGTSKPNEEISGPAEPASPPETTTTAQETSAAAVQGTAKVTSSRQELNPLKSIVEKSILLTEQALAKAGKGMHGGVPGGKQFIENGSEFAQKLLKKFSL")
"active"
>>> result("C-10: deletion of the 10 carboxy terminal amino acids of mature lacritin (SEQ ID NO:10) (protein, homo sapiens) EDASSDSTGADPAQEAGTSKPNEEISGPAEPASPPETTTTAQETSAAAVQGTAKVTSSRQELNPLKSIVEKSILLTEQALAKAGKGMHGGVPGGKQFIENGSEFAQKLL")
"active"
